Attribution: ChEMBL document CHEMBL4177726

target: Neuraminidase (Influenza A virus (A/Puerto Rico/8/1934(H1N1))); assay: Inhibition of Influenza A virus A/PR/8/34(H1N1) sialidase at 3.33 x 10^-4M preincubated for 15 mins followed by MUNA substrate addition measured after 15 mins by fluorescence assay relative to control
Endpoint: inhibition (%)
Number in %, nothing else.

Smiles Entry | Quantitative Readout
CC(=O)N[C@H]1[C@H]([C@H](O)[C@H](O)CO)O[C@](O[C@H]2CC[C@]3(C)[C@H]4CC=C5[C@@H]6C[C@@](C)(CO)CC[C@]6(C)CC[C@@]5(C)[C@]4(C)CC[C@H]3C2(C)C)(C(=O)O)C[C@@H]1O | 76.7

Now take the following compound into account.
CC(=O)N[C@H]1[C@H]([C@H](O)[C@H](O)CO)O[C@](O[C@H]2CC[C@]3(C)[C@H]4C(=O)C=C5[C@@H]6C[C@@](C)(CO)CC[C@]6(C)CC[C@@]5(C)[C@]4(C)CC[C@H]3C2(C)C)(C(=O)O)C[C@@H]1O yielded inhibition of 35.8
